Test: in vivo
Settings: mouse, ip
Description: 20-30 g b.w., were obtained from Charles River, Italy. Animals were housed with free access to food and water and maintained on forced light-dark cycle at 22°-24° C. until the day of experiments. The acute toxicity of synthesized compounds was evaluated in female Albino Swiss mice after intraperitoneal and oral administration. […] Mortality was recorded 7 days after the administration.
Measure name: LD50 at 168 h (mg/kg)
// return numeric value only (unit: mg/kg, not printed)

Requested field: LD50 at 168 h. Item: COc1cc2nc(N3CCN(C(=O)COc4c(OC)cccc4C(C)C)CC3)nc(N)c2cc1OC.Cl [Example 24]
268

###

assay: in vivo; conditions: mouse, ip, mice, intraperitoneal, mortality 7 days after administration, read-out: DL50 i.p.
Collected LD50 at 168 h values appear next to each entry.

{"columns": ["Compound", "LD50 at 168 h"],
 "data": [
  ["COc1cc2nc(N3CCN(C(=O)COc4cc(C)ccc4C(C)C)CC3)nc(N)c2cc1OC", "346 mg/kg"]
]}

May I ask what LD50 at 168 h has been recorded for COc1cc2nc(N3CCN(C(=O)CNC(=O)OCc4ccccc4)CC3)nc(N)c2cc1OC.Cl ?
> 1000 mg/kg

Would you kindly share the measured LD50 at 168 h for COc1cc2nc(N3CCN(C(=O)CCC(=O)c4ccccc4)CC3)nc(N)c2cc1OC.Cl.O ?
> 1000 mg/kg
